Reported MIK values for a set of compounds
# Test system: S. pyogenes iMLS
# experimentalProtocol: MIC by broth dilution (NCCLS M7-A2)
# Assay type: cell-based
# setupConditions: 90% growth inhibition
Enter your answer as a number in µg/mL; do not include the unit.

CC[C@H]1OC(=O)[C@H](C)[C@@H](O[C@H]2C[C@@](C)(OC)[C@@H](O)[C@H](C)O2)[C@H](C)[C@@H](O[C@@H]2O[C@H](C)C[C@H](N(C)C)[C@H]2O)[C@](C)(O)C[C@@H](C)CN(CCCNC(=O)NCCc2ccccc2)[C@H](C)[C@@H](O)[C@]1(C)O | 4

Please give measured MIK of the following entry: "CC[C@H]1OC(=O)[C@H](C)[C@@H](O[C@H]2C[C@@](C)(OC)[C@@H](O)[C@H](C)O2)[C@H](C)[C@@H](O[C@@H]2O[C@H](C)C[C@H](N(C)C)[C@H]2O)[C@](C)(O)C[C@@H](C)CN(CCCNC(=O)N(CCC#N)c2ccccc2C(F)(F)F)[C@H](C)[C@@H](O)[C@]1(C)O"
8

Source of measurements: patent US7342000B2
